- System: mGluR5
- Method Summary: Selectivity index, ratio of cytotoxicity for mouse BV2 cells to IC50 for mGluR5 in mouse BV2 cells
- Assay type: toxicity, cell-based, BV-2
- Test Parameters: read-out: Selectivity Index
Cut-off 6 on selectivity ratio, inclusive. At or above means yes (1); below means no (0).

- Molecule: "O=C(N[C@H]1C[C@@H]1c1cccc(F)c1)c1ccc([N+](=O)[O-])cc1 (racemic)"
  Assigned Category: "no (0)"
- Molecule: "O=C(Nc1ccccc1Cl)[C@H]1C[C@@H]1c1cccc(Cl)c1 (relative stereo)"
  Assigned Category: "yes (1)"
- Molecule: "O=C(Nc1ccccc1F)[C@H]1C[C@@H]1c1cccc(F)c1 (racemic)"
  Assigned Category: "no (0)"
- Molecule: "O=C(Nc1ccc(F)cc1)[C@H]1C[C@@H]1c1cccc(Cl)c1 (relative stereo)"
  Assigned Category: "yes (1)"
- Molecule: "O=C(Nc1ccccc1Cl)[C@H]1C[C@@H]1c1cccc(F)c1 (racemic)"
  Assigned Category: "no (0)"

###

- Study Target: Metabotropic glutamate receptor 5 (Mus musculus, UniProt Q3UVX5)
- Sequence (Q3UVX5 whole entry): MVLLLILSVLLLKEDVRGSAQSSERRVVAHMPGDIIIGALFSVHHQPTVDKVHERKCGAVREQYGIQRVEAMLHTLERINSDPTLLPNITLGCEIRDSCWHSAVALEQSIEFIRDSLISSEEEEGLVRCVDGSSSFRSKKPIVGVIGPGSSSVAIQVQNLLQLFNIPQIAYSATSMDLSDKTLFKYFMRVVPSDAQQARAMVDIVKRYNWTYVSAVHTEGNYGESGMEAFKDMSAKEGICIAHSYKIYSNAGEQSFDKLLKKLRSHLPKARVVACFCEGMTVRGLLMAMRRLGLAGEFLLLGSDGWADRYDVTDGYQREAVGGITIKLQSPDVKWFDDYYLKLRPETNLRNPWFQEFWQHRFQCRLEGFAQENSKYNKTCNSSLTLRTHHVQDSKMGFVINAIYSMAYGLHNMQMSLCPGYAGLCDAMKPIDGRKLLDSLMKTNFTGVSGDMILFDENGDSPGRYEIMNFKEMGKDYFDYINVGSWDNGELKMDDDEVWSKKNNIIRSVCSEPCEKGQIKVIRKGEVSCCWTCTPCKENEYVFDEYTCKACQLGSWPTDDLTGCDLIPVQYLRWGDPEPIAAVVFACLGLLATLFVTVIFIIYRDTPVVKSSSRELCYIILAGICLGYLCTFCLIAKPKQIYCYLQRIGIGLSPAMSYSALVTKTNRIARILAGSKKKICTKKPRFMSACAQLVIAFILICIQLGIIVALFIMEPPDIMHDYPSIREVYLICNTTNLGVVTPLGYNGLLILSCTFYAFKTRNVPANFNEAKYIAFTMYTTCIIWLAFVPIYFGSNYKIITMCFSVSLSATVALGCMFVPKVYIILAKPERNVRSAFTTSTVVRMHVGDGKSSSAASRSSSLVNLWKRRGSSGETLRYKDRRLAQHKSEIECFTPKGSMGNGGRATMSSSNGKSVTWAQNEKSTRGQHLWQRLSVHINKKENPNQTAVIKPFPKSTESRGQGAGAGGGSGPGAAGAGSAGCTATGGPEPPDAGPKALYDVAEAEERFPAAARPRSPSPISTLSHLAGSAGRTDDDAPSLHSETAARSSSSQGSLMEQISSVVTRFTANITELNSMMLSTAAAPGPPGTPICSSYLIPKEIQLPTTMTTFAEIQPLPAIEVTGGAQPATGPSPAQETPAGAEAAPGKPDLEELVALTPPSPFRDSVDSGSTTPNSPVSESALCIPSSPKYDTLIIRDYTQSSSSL
- Method Summary: Positive allosteric modulation at mGluR5 in mouse BV2 cells assessed as inhibition of LPS-induced NO production incubated for 1 hr prior to LPS challenge measured after 24 hrs by Griess assay
pIC50: −log10 of the molar value.
The entries below are paired with their reported pIC50.

- Compound: "O=C(Nc1ccccc1Cl)[C@H]1C[C@@H]1c1cccc(F)c1 (racemic)"
  pIC50: 3.74
- Compound: "O=C(N[C@H]1C[C@@H]1c1cccc(F)c1)c1ccc([N+](=O)[O-])cc1 (racemic)"
  pIC50: 3.70
- Compound: "O=C(N[C@H]1C[C@@H]1c1cccc(F)c1)c1ccccn1 (racemic)"
  pIC50: 3.77
- Compound: "O=C(Nc1ccc(F)cc1)[C@H]1C[C@@H]1c1cccc(F)c1 (racemic)"
  pIC50: 3.80

###

- Test system: mGluR5
- Method Summary: Selectivity index, ratio of cytotoxicity for mouse BV2 cells to IC50 for mGluR5 in mouse BV2 cells
- Assay type: toxicity, cell-based, BV-2
- Test Parameters: read-out: Selectivity Index

- Compound: "O=C(N[C@H]1C[C@@H]1c1cccc(F)c1)c1ccccn1 (racemic)"
  selectivity ratio: 4.6
- Compound: "O=C(N[C@H]1C[C@@H]1c1cccc(F)c1)c1cccc(F)c1 (racemic)"
  selectivity ratio: 33
- Compound: "O=C(Nc1ccc(F)cc1)[C@H]1C[C@@H]1c1cccc(F)c1 (racemic)"
  selectivity ratio: 6.25
- Compound: "O=C(Nc1nc2ccccc2s1)[C@H]1C[C@@H]1c1cccc(F)c1 (racemic)"
  selectivity ratio: 6.49
- Compound: "COc1cc(Br)ccc1NC(=O)[C@H]1C[C@@H]1c1cccc(F)c1 (racemic)"
  selectivity ratio: 21.8

###

- Method Summary: Cytotoxicity against mouse BV2 cells assessed as cell viability by cytotox nonradioactive assay
- Format: cell-based
- Test Parameters: bv-2

- Compound: "O=C(Nc1ccccc1Cl)[C@H]1C[C@@H]1c1cccc(F)c1 (racemic)"
  Cytotoxic concentration / µM: 1000
- Compound: "O=C(N[C@H]1C[C@@H]1c1cccc(F)c1)c1cccc(Cl)c1 (relative stereo)"
  Cytotoxic concentration / µM: 1000
- Compound: "O=C(Nc1nc2ccccc2[nH]1)[C@H]1C[C@@H]1c1cccc(F)c1 (racemic)"
  Cytotoxic concentration / µM: 300
- Compound: "O=C(N[C@H]1C[C@@H]1c1cccc(F)c1)c1cccc(F)c1 (racemic)"
  Cytotoxic concentration / µM: 1000
